assay: Comparative in vivo bioavailability study in the dog (oral gavage, plasma LC-MS-MS); conditions: Beagle, plasma, po, 0.8 mg/kg, oral tapentadol valine carbamate 0.8 mg tapentadol base equiv/kg, individual dogs 1-5, read-out: Cmax of tapentadol valine carbamate
EXPERIMENTAL READOUT: Cmax (ng/mL)

COMPOUND: CC[C@H](c1cccc(OC(=O)N[C@H](C(=O)O)C(C)C)c1)[C@H](C)CN(C)C (racemic) [Tapentadol valine carbamate]
UNITS LABEL: ng/mL
ENDPOINT VALUE: 42.8

----------
assay: Comparative in vivo bioavailability study in the dog (oral gavage, plasma LC-MS-MS); details: Beagle, plasma, po, 0.8 mg/kg, oral tapentadol valine carbamate 0.8 mg tapentadol base equiv/kg, mean of 5 dogs, read-out: Cmax of tapentadol valine carbamate

MOLECULE: CC[C@H](c1cccc(OC(=O)N[C@H](C(=O)O)C(C)C)c1)[C@H](C)CN(C)C (racemic) [Tapentadol valine carbamate]
Cmax, ng/mL: 53.4

----------
experiment: Comparative bioavailability after oral administration to rats (plasma LC-MS-MS); type: in vivo; conditions: male, Sprague Dawley, rat, plasma, po, 10 mg free base equiv/kg, oral tapentadol 10 mg free base equiv/kg, mean, animal 5 excluded, read-out: Cmax of tapentadol
EXPERIMENTAL READOUT: Cmax (ng/mL)

MOLECULE: CC[C@@H](c1cccc(O)c1)[C@@H](C)CN(C)C (racemic) [Tapentadol]
UNITS LABEL: ng/mL
ENDPOINT VALUE: 4.67

----------
experiment: Comparative bioavailability after oral administration to rats (plasma LC-MS-MS); type: in vivo; conditions: male, Sprague Dawley, rat, plasma, po, 10 mg free base equiv/kg, oral tapentadol 10 mg free base equiv/kg, 3 h, mean, animal 5 excluded, read-out: Plasma concentration of tapentadol
EXPERIMENTAL READOUT: concentration at 3 h (ng/mL)

MOLECULE: CC[C@@H](c1cccc(O)c1)[C@@H](C)CN(C)C (racemic)
ENDPOINT VALUE: 1.82

----------
Assay: Comparative in vivo bioavailability study in the dog (oral gavage, plasma LC-MS-MS)
Conditions: Beagle, plasma, po, 1 mg/kg, oral tapentadol HCl 1 mg tapentadol base equiv/kg, calculated as ln2/mean k, read-out: t½ of tapentadol (converted)
Experimental: Test substances (i.e., tapentadol (1 mg/kg) and tapentadol valine carbamate (0.8 mg tapentadol base equivalents/kg)) were administered by oral gavage to a group of five dogs (dog nos. 1, 2, 3, 4 and 5) in a two-way crossover design. […] Blood samples were taken at various times after administration and submitted to analysis for the parent drug and pro-drug using a validated LC-MS-MS assay. Pharmacokinetic parameters derived from the plasma analytical data were determined using Win Nonlin.
EXPERIMENTAL READOUT: half-life

COMPOUND: CC[C@@H](c1cccc(O)c1)[C@@H](C)CN(C)C (racemic) [Tapentadol]
ENDPOINT VALUE: 1.2 h

----------
Experiment: Comparative bioavailability after oral administration to rats (plasma LC-MS-MS)
Format: in vivo
Settings: Sprague Dawley, plasma; male rat, oral tapentadol valine carbamate 10 mg tapentadol free base equiv/kg, 0.5 h; individual animals 6-10; read-out: Plasma concentration of tapentadol valine carbamate
Description: Test substances, i.e., tapentadol or tapentadol valine carbamate were administered by oral gavage to groups of male Sprague Dawley rats. Blood samples were taken at various times after administration and submitted to analysis for the parent drug and pro-drug using a validated LC-MS-MS assay. Pharmacokinetic parameters derived from the plasma analytical data were determined using Win Nonlin.
EXPERIMENTAL READOUT: concentration at 0.5 h (ng/mL)

COMPOUND: CC[C@H](c1cccc(OC(=O)N[C@H](C(=O)O)C(C)C)c1)[C@H](C)CN(C)C (racemic) [Tapentadol valine carbamate]
EXPERIMENTAL READOUT: concentration at 0.5 h
ENDPOINT VALUE: 64.5

----------
test: Comparative bioavailability after oral administration to rats (plasma LC-MS-MS); format: in vivo; conditions: male, Sprague Dawley, rat, plasma, po, 10 mg free base equiv/kg, oral tapentadol 10 mg free base equiv/kg, 0.5 h, mean, animal 5 excluded, read-out: Plasma concentration of tapentadol

COMPOUND: CC[C@@H](c1cccc(O)c1)[C@@H](C)CN(C)C (racemic)
concentration at 0.5 h, ng/mL: 2.73

----------
test: Comparative bioavailability after oral administration to rats (plasma LC-MS-MS); format: in vivo; conditions: male, Sprague Dawley, rat, plasma, po, 10 mg tapentadol free base equiv/kg, oral tapentadol valine carbamate 10 mg tapentadol free base equiv/kg, 2 h, mean, read-out: Plasma concentration of tapentadol valine carbamate
EXPERIMENTAL READOUT: concentration at 2 h (ng/mL)

COMPOUND: CC[C@H](c1cccc(OC(=O)N[C@H](C(=O)O)C(C)C)c1)[C@H](C)CN(C)C (racemic) [Tapentadol valine carbamate]
EXPERIMENTAL READOUT: concentration at 2 h
ENDPOINT VALUE: 82.4

----------
assay: Comparative bioavailability after oral or intravenous administration to monkeys (plasma LC-MS-MS); type: in vivo, cynomolgus monkey; details: male, cynomolgus monkey, plasma, iv, 0.5 mg/kg, male monkey, i.v. tapentadol valine carbamate 0.5 mg tapentadol free base equiv/kg; mean; read-out: AUCt of tapentadol valine carbamate
EXPERIMENTAL READOUT: AUC(0-t) (ng·h/mL)

COMPOUND: CC[C@H](c1cccc(OC(=O)N[C@H](C(=O)O)C(C)C)c1)[C@H](C)CN(C)C (racemic) [Tapentadol valine carbamate]
UNITS LABEL: ng·h/mL
ENDPOINT VALUE: 880

----------
assay: Comparative bioavailability after oral or intravenous administration to monkeys (plasma LC-MS-MS); type: in vivo, cynomolgus monkey; settings: male, cynomolgus monkey, plasma, iv, 0.5 mg/kg, male monkey, i.v. tapentadol valine carbamate 0.5 mg tapentadol free base equiv/kg; calculated as ln2/mean k; read-out: t½ of tapentadol valine carbamate (converted)

COMPOUND: CC[C@H](c1cccc(OC(=O)N[C@H](C(=O)O)C(C)C)c1)[C@H](C)CN(C)C (racemic) [Tapentadol valine carbamate]
half-life, h: 1.4

----------
assay: Comparative bioavailability after oral or intravenous administration to monkeys (plasma LC-MS-MS); format: in vivo, cynomolgus monkey; conditions: male, cynomolgus monkey, plasma, iv, 0.5 mg tapentadol free base equiv/kg, male monkey, i.v. tapentadol valine carbamate 0.5 mg tapentadol free base equiv/kg, 0.25 h; mean

MOLECULE: CC[C@H](c1cccc(OC(=O)N[C@H](C(=O)O)C(C)C)c1)[C@H](C)CN(C)C (racemic) [Tapentadol valine carbamate]
concentration at 0.25 h, ng/mL: 711

----------
experiment: Comparative bioavailability after oral administration to rats (plasma LC-MS-MS); format: in vivo; settings: male, Sprague Dawley, rat, plasma, po, 10 mg tapentadol free base equiv/kg, oral tapentadol valine carbamate 10 mg tapentadol free base equiv/kg, 4 h, mean, read-out: Plasma concentration of tapentadol valine carbamate
EXPERIMENTAL READOUT: concentration at 4 h (ng/mL)

COMPOUND: CC[C@H](c1cccc(OC(=O)N[C@H](C(=O)O)C(C)C)c1)[C@H](C)CN(C)C (racemic) [Tapentadol valine carbamate]
ENDPOINT VALUE: 43.1

----------
assay: Comparative in vivo bioavailability study in the dog (oral gavage, plasma LC-MS-MS); conditions: Beagle, plasma, po, 0.8 mg/kg, oral tapentadol valine carbamate 0.8 mg tapentadol base equiv/kg, mean of 5 dogs, read-out: AUCt of tapentadol

COMPOUND: CC[C@@H](c1cccc(O)c1)[C@@H](C)CN(C)C (racemic) [Tapentadol]
AUC(0-t), ng·h/mL: 32

----------
assay: Comparative in vivo bioavailability study in the dog (oral gavage, plasma LC-MS-MS); conditions: Beagle, plasma, po, 0.8 mg/kg, oral tapentadol valine carbamate 0.8 mg tapentadol base equiv/kg, mean of 5 dogs, read-out: Cmax of tapentadol

MOLECULE: CC[C@@H](c1cccc(O)c1)[C@@H](C)CN(C)C (racemic) [Tapentadol]
Cmax (ng/mL): 14.5

----------
assay: Comparative bioavailability after oral or intravenous administration to monkeys (plasma LC-MS-MS); assay type: in vivo, cynomolgus monkey; conditions: male, cynomolgus monkey, plasma, iv, 0.5 mg/kg, male monkey, i.v. tapentadol valine carbamate 0.5 mg tapentadol free base equiv/kg; mean

COMPOUND: CC[C@H](c1cccc(OC(=O)N[C@H](C(=O)O)C(C)C)c1)[C@H](C)CN(C)C (racemic) [Tapentadol valine carbamate]
AUC (ng·h/mL): 883

----------
assay: Comparative bioavailability after oral administration to rats (plasma LC-MS-MS); assay type: in vivo; settings: male, Sprague Dawley, rat, plasma, po, 10 mg tapentadol free base equiv/kg, oral tapentadol valine carbamate 10 mg tapentadol free base equiv/kg, individual animals 6-10, read-out: AUCt of tapentadol valine carbamate

MOLECULE: CC[C@H](c1cccc(OC(=O)N[C@H](C(=O)O)C(C)C)c1)[C@H](C)CN(C)C (racemic) [Tapentadol valine carbamate]
AUC(0-t): 560 ng·h/mL

----------
Assay: Comparative bioavailability after oral or intravenous administration to monkeys (plasma LC-MS-MS)
Format: in vivo, cynomolgus monkey
Settings: male, cynomolgus monkey, plasma, iv, 0.5 mg tapentadol free base equiv/kg, male monkey, i.v. tapentadol valine carbamate 0.5 mg tapentadol free base equiv/kg, 9 h; mean
Protocol: Test substances i.e., tapentadol and tapentadol valine carbamate were administered (either intravenously or orally) to a group of five male cynomolgus monkeys in a three way crossover design. […] Blood samples were taken at various times after administration and submitted to analysis for the parent drug and tapentadol valine carbamate using a validated LC-MS-MS assay. Pharmacokinetic parameters derived from the plasma analytical data were determined using Win Nonlin.

MOLECULE: CC[C@H](c1cccc(OC(=O)N[C@H](C(=O)O)C(C)C)c1)[C@H](C)CN(C)C (racemic) [Tapentadol valine carbamate]
concentration at 9 h: 1.25 ng/mL
